# protocol: melting temperature; fluorescence melt of hairpins on a sequencing array, two-state fit, raised by 9.35 °C to match UV melts
# measurementParameters: sodium 0.088 M
Recorded Tm split into classes low bin (below 40 °C), mid bin (40 °C to below 50 °C), high bin (50 °C or more)

residueString: GTCTAGGGAAACTTAGAC (((((.(....).)))))
assignedCategory: low bin

residueString: GATCAATCATTGATC ((((((...))))))
assignedCategory: mid bin

residueString: GTAACCGAAAGGTGGTAC ((((((....)))..)))
assignedCategory: low bin

residueString: GGCGAAGCGAAAGCTGCC (((..(((....))))))
assignedCategory: high bin

residueString: GCCAAGCGAAAGCTCGGC (((.(((....))).)))
assignedCategory: high bin

residueString: GCCACCGAAAGGTATGGC ((((((....)))..)))
assignedCategory: high bin

Consider GATCCGCATCGGATC ((((((...)))))) . To which Tm class does it belong?
high bin

Consider GAAATAGGAAACTGTTTC ((((.((....)).)))) . To which Tm class does it belong?
low bin

Consider GGAGCTCGAAAGAGTCC (((.(((....)))))) . To which Tm class does it belong?
mid bin

Consider GACCTCGGAAACGAGGCC (.(((((....))))).) . To which Tm class does it belong?
high bin

====

# protocol: folding enthalpy; higher = less favourable; fluorescence melt of hairpins on a sequencing array, two-state fit
# measurementParameters: sodium 0.088 M
Recorded folding enthalpy values for a group of sequences are listed next.

Worked cases, answers included:
residueString: GGAACCGAAAGGTATTCC ((((((....)))..)))
folding enthalpy: -55.6 kJ/mol

residueString: GATCCTTATGAGGATC ((((((....))))))
folding enthalpy: -155 kJ/mol

residueString: GCGTCTGCGAAAGCACGC (((..(((....))))))
folding enthalpy: -77.4 kJ/mol

residueString: GTGCGTGGAAACATGCAC ((((.((....)).))))
folding enthalpy: -203 kJ/mol

residueString: GCAGGGCGAAAGCGCAGC ((.(.((....)).).))
folding enthalpy: -50 kJ/mol

Let us move to another entry and its folding enthalpy.
Could you share which folding enthalpy value was measured for GCATCAGGAAACCGATGC (((((.(....).))))) ?
-140 kJ/mol

====

# protocol: folding enthalpy; higher = less favourable; fluorescence melt of hairpins on a sequencing array, two-state fit
# measurementParameters: sodium 0.088 M
readoutType: folding enthalpy (kcal/mol)
Just the number please, in kcal/mol, no unit attached.

Worked cases, answers included:
residueString: TCCAAGAAATTGGA (((((....)))))
folding enthalpy / kcal/mol: -10.5
--
residueString: GATCATGATAATGATC ((((((....))))))
folding enthalpy / kcal/mol: -48.7
--
residueString: GCTTGGCGAAAGCGACGC ((.(.((....)).).))
folding enthalpy / kcal/mol: -13.2

Could you share which folding enthalpy value was measured for GATCGTCTGACGATC ((((((...)))))) ?
-51.7

Could you share which folding enthalpy value was measured for GCTCAGCGAAAGCCTAGC (((..((....))..))) ?
-19.7

Could you share which folding enthalpy value was measured for GATCGGACCCCGATC ((((((...)))))) ?
-39.4

Could you share which folding enthalpy value was measured for GATCGTTTTCACGATC ((((((....)))))) ?
-45.2

Could you share which folding enthalpy value was measured for GGATGGGGAAACCCACCC ((.((((....)))).)) ?
-24.1

====

# protocol: melting temperature; fluorescence melt of hairpins on a sequencing array, two-state fit, raised by 9.35 °C to match UV melts
# measurementParameters: sodium 0.088 M
Recorded Tm values for a group of sequences are listed next.
Just the number please, in °C, no unit attached.

Worked cases, answers included:
residueString: GATCAGGGTACTGATC ((((((....))))))
Tm, °C: 55.5

residueString: GAAAGCGAAAGCTTCTTC ((((((....)))..)))
Tm, °C: 53.5

residueString: GGCATCGAAAGATAGCC ((((((....))).)))
Tm, °C: 51.9

residueString: GAATTACGAAAGTAGTTC (((.(((....))).)))
Tm, °C: 42.6

residueString: GTGCCCGGAAACAGGCAC (((((.(....).)))))
Tm, °C: 54.9

Could you share which Tm value was measured for GCAGCCGGAAACGGTTGC (((.(((....))).))) ?
64.8

Could you share which Tm value was measured for ACATGGAAACATGT (((((....))))) ?
45

Could you share which Tm value was measured for TTCCAGAAATGGAA (((((....))))) ?
31

====

# protocol: folding enthalpy; higher = less favourable; fluorescence melt of hairpins on a sequencing array, two-state fit
# measurementParameters: sodium 0.088 M
Recorded folding enthalpy values for a group of sequences are listed next.
Just the number please, in kcal/mol, no unit attached.

Worked cases, answers included:
residueString: GATCGGTCGCCCGATC ((((((....))))))
folding enthalpy [kcal/mol]: -54.5
//
residueString: GTGACAGGAAACTGTTAC ((.((((....)))).))
folding enthalpy [kcal/mol]: -28.1
//
residueString: GCAGGAGAAATCCTGC ((((((....))))))
folding enthalpy [kcal/mol]: -36.1

Could you share which folding enthalpy value was measured for GGGGGTGGAAACATCCCC ((((.((....)).)))) ?
-34.7

Could you share which folding enthalpy value was measured for GGCGTTCGAAAGAATGCC (((.(((....))).))) ?
-56.5

====

# protocol: melting temperature; fluorescence melt of hairpins on a sequencing array, two-state fit, raised by 9.35 °C to match UV melts
# measurementParameters: sodium 0.088 M
readoutType: Tm (°C)
Just the number please, in °C, no unit attached.

Worked cases, answers included:
residueString: GATCCCATTTGGGATC ((((((....))))))
readoutType: Tm
unitAnnotation: °C
observedValue: 66.1
//
residueString: GATCACGTCGGTGATC ((((((....))))))
readoutType: Tm
unitAnnotation: °C
observedValue: 59.7
//
residueString: GATCTTGGTGAAGATC ((((((....))))))
readoutType: Tm
unitAnnotation: °C
observedValue: 45.4
//
residueString: GGGCGCACGAAAGTGCCC (((..(((....))))))
readoutType: Tm
unitAnnotation: °C
observedValue: 57
//
residueString: GAAGCGACGAAAGTCTTC (((..(((....))))))
readoutType: Tm
unitAnnotation: °C
observedValue: 27.9
//
residueString: GTTAGAGCGAAAGCTAAC (((..(((....))))))
readoutType: Tm
unitAnnotation: °C
observedValue: 33.1
//
residueString: GTGACTGAAAAGTCAC ((((((....))))))
readoutType: Tm
unitAnnotation: °C
observedValue: 61
//
residueString: GATCTTAGTAAGATC ((((((...))))))
readoutType: Tm
unitAnnotation: °C
observedValue: 42.5
//
residueString: GGGCTGGCGAAAGCCCCC (((..(((....))))))
readoutType: Tm
unitAnnotation: °C
observedValue: 52.1
//
residueString: GCTAGGCGAAAGCCAGC (((.(((....))))))
readoutType: Tm
unitAnnotation: °C
observedValue: 62.9

Could you share which Tm value was measured for GATCTATTCTTAGATC ((((((....)))))) ?
44.8

Could you share which Tm value was measured for GCGCCCGGAAACAGGCGC (((((.(....).))))) ?
66.7

Could you share which Tm value was measured for GCTATTCCGAAAGGAAGC (((..(((....)))))) ?
32.9

====

# protocol: melting temperature; fluorescence melt of hairpins on a sequencing array, two-state fit, raised by 9.35 °C to match UV melts
# measurementParameters: sodium 0.088 M
Mark class 0 for Tm values under 40 °C, and class 1 for everything at or above.

residueString: GGAACCGAAAGGTAGTCC ((((((....)))..)))
assignedCategory: class 0

residueString: GCCACCGAAAGGTACGGC ((((((....)))..)))
assignedCategory: class 1

residueString: GCGTAGCGAAAGCTTGGC ((..(((....)))..))
assignedCategory: class 0

Can GTGACGGAAACGTCAC ((((((....)))))) be said to have Tm at or above 40 °C?
class 1

Can GGAAGAGAAATCTTCC ((((((....)))))) be said to have Tm at or above 40 °C?
class 1

Can GCTGAGCGAAAGCAAAGC (((..((....))..))) be said to have Tm at or above 40 °C?
class 1

Can GCAACGCGAAAGCGAAGC ((..(((....)))..)) be said to have Tm at or above 40 °C?
class 1

Can GTCCGCGAAAGCGTCGAC ((((((....)))..))) be said to have Tm at or above 40 °C?
class 0

Can GGAGAACGAAAGTTTCC (((.(((....)))))) be said to have Tm at or above 40 °C?
class 0

Can GATAGTGGAAACGCTATC (((((.(....).))))) be said to have Tm at or above 40 °C?
class 1

Can ACTGAGAAATCAGT (((((....))))) be said to have Tm at or above 40 °C?
class 0

Can GACTGAGGAAACTCGGTC (((.(((....))).))) be said to have Tm at or above 40 °C?
class 1

Can GACGCCGCGAAAGCGGTC (((..(((....)))))) be said to have Tm at or above 40 °C?
class 0

Can GTACAGGGAAACCTGTAC (((((((....))))))) be said to have Tm at or above 40 °C?
class 1

Can GAAAGCCGAAAGGCTTC (((.(((....)))))) be said to have Tm at or above 40 °C?
class 1
